- Test system: MCF10A
- test.description: 5+ nucleoli phenotype percent effect (relative to siNT 0% and siKIF11 100%); higher = more cells with five or more nucleoli
- details: 20 nM; 72 h
Recorded 5+ nucleoli phenotype percent effect by entry
Reply numerically in %, unit not repeated.

Example entries begin here.
{"columns": ["sequence.chain", "study.target", "5+ nucleoli phenotype percent effect (%)"],
 "data": [
  ["UCCGAGCCUGGGUCUCCCUCUU [hsa-miR-615-3p]", "MCF10A", -0.788],
  ["CACUAGAUUGUGAGCUCCUGGA [hsa-miR-28-3p]", "MCF10A", 12.4],
  ["UCACCAGCCCUGUGUUCCCUAG [hsa-miR-1226-3p]", "MCF10A", -42.2],
  ["GUGCUUCAUCGUAAUUAACCUUA [hsa-miR-3977]", "MCF10A", -18.9],
  ["CCCAGAUAAUGGCACUCUCAA [hsa-miR-488-5p]", "MCF10A", 32.8],
  ["UCAUUUUUGUGAUGUUGCAGCU [hsa-miR-153-5p]", "MCF10A", 3.53],
  ["UCGCGGUUUGUGCCAGAUGACG [hsa-miR-579-5p]", "MCF10A", 41.8],
  ["GACUGGACAAGCUGAGGAA [hsa-miR-3654]", "MCF10A", 68.1],
  ["CAGGCAGUGACUGUUCAGACGUC [hsa-miR-2682-5p]", "MCF10A", -23.5],
  ["UAUUCAGGAAGGUGUUACUUAA [hsa-miR-506-5p]", "MCF10A", -1.47]
]}

Input CGUGUAUUUGACAAGCUGAGUU [hsa-miR-223-5p] . Output 5+ nucleoli phenotype percent effect: -35

Input AAAAGUAACUGCGGUUUUUGCCU [hsa-miR-548w] . Output 5+ nucleoli phenotype percent effect: 56.1

---

Recorded percent viability by entry
- Tested on: MCF10A
- test.description: percent viability (nuclei count relative to siNT); higher = more viable cells
- details: 20 nM; 72 h
Reply numerically in %, unit not repeated.

Reported percent viability (MCF10A) for entry GAAGGCGCUUCCCUUUGGAGU [hsa-miR-524-3p] is 70.4

Reported percent viability (MCF10A) for entry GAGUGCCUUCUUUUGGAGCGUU [hsa-miR-515-3p] is 50.3

Reported percent viability (MCF10A) for entry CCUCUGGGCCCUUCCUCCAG [hsa-miR-326] is 20.2

Reported percent viability (MCF10A) for entry GCUGCGCUUGGAUUUCGUCCCC [hsa-miR-191-3p] is 71

Reported percent viability (MCF10A) for entry ACUGAUUAUCUUAACUCUCUGA [hsa-miR-3920] is 82

Reported percent viability (MCF10A) for entry CACUGUAGGUGAUGGUGAGAGUGGGCA [hsa-miR-1183] is 66.4

Reported percent viability (MCF10A) for entry GGUGGGAUGGAGAGAAGGUAUGAG [hsa-miR-4769-5p] is 77.6

---

- Test system: MCF10A
- test.description: percent viability (nuclei count relative to siNT); higher = more viable cells
- details: 20 nM; 72 h
Classify: label 1 when percent viability is strictly less than 50%; label 0 when percent viability is not.

These recorded examples may help you get a feel for the data.
{"columns": ["sequence.chain", "study.target", "group"],
 "data": [
  ["UGGGUGUAGGCUGGAGCUGAGG [hsa-miR-6772-5p]", "MCF10A", "label 1"],
  ["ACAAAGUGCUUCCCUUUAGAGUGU [hsa-miR-520g]", "MCF10A", "label 0"]
]}

Item AUACAUGUCAGAUUGUAUGCC [hsa-miR-4666a-5p] : percent viability beneath 50%, strictly?
label 0

Item UUCGCCACUUCCCUCCCUGCAG [hsa-miR-6788-3p] : percent viability beneath 50%, strictly?
label 0

Item UCUGUGAUAGAGAUUCUUUGCU [hsa-miR-4679] : percent viability beneath 50%, strictly?
label 0

Item CAGAACAGGAGCAUAGAAAGGC [hsa-miR-4773] : percent viability beneath 50%, strictly?
label 1

Item GGAGGGGUCCCGCACUGGGAGG [hsa-miR-1914-3p] : percent viability beneath 50%, strictly?
label 0

Item CGGCGCGACCGGCCCGGGG [hsa-miR-4634] : percent viability beneath 50%, strictly?
label 0

Item UUUCCUACCCUACCUGAAGACU [hsa-miR-3685] : percent viability beneath 50%, strictly?
label 1

Item AGCGAGGUUGCCCUUUGUAUAU [hsa-miR-381-5p] : percent viability beneath 50%, strictly?
label 0

Item AGCAGACUUGACCUACAAUUA [hsa-miR-4771] : percent viability beneath 50%, strictly?
label 0

---

- Tested on: MCF10A
- test.description: one-nucleolus phenotype percent effect (relative to siNT 0% and siNOL11 100%); higher = more cells with one nucleolus (ribosome biogenesis inhibition)
- details: 20 nM; 72 h
experimental.endpoint: one-nucleolus phenotype percent effect (%)
Reply numerically in %, unit not repeated.

Example entries begin here.
{"columns": ["sequence.chain", "one-nucleolus phenotype percent effect (%)"],
 "data": [
  ["GAAAGAGAGCUGAGUGUG [hsa-miR-4311]", 31.2],
  ["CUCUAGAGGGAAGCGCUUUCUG [hsa-miR-522-5p]", -5.68]
]}

Input CCACCUCCCCUGCAAACGUCCA [hsa-miR-1306-5p] . Output one-nucleolus phenotype percent effect: -25.8

---

- System: MCF10A
- test.description: 5+ nucleoli phenotype percent effect (relative to siNT 0% and siKIF11 100%); higher = more cells with five or more nucleoli
- details: 20 nM; 72 h
experimental.endpoint: 5+ nucleoli phenotype percent effect (%)
Reply numerically in %, unit not repeated.

{"columns": ["sequence.chain", "reading.unit", "5+ nucleoli phenotype percent effect"],
 "data": [
  ["AAGAGAGGAGCAGUGGUGCUGUGG [hsa-miR-6856-5p]", "%", -5.13],
  ["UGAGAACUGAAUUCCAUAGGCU [hsa-miR-146b-5p]", "%", -25.8],
  ["CAUCUGGGCAACUGACUGAAC [hsa-miR-1298-3p]", "%", -17.1],
  ["AAAAGUAACUGCGGUUUUUGA [hsa-miR-548ak]", "%", 45.4],
  ["GCUCAUCCCCAUCUCCUUUCAG [hsa-miR-6870-3p]", "%", 36.6],
  ["CCAAUAUUGGCUGUGCUGCUCC [hsa-miR-195-3p]", "%", 27.5],
  ["CGGGCUGUCCGGAGGGGUCGGCU [hsa-miR-4741]", "%", 42.5],
  ["CAAAAACCACAGUUUCUUUUGC [hsa-miR-548d-3p]", "%", -4.46]
]}

Input UAGCCCCCAGGCUUCACUUGGCG [hsa-miR-3943] . Output 5+ nucleoli phenotype percent effect: -18.2

Input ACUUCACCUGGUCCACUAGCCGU [hsa-miR-412] . Output 5+ nucleoli phenotype percent effect: 26

Input UUAUUGUCACGUUCUGAUU [hsa-miR-5701] . Output 5+ nucleoli phenotype percent effect: 3.43

Input AGUGGACCGAGGAAGGAAGGA [hsa-miR-4800-5p] . Output 5+ nucleoli phenotype percent effect: -9.53

Input UAGGAUGGGGGUGAGAGGUG [hsa-miR-2392] . Output 5+ nucleoli phenotype percent effect: 17.7

---

- Tested on: MCF10A
- test.description: 5+ nucleoli phenotype percent effect (relative to siNT 0% and siKIF11 100%); higher = more cells with five or more nucleoli
- details: 20 nM; 72 h
Recorded 5+ nucleoli phenotype percent effect by entry
Reply numerically in %, unit not repeated.

{"columns": ["sequence.chain", "study.target", "5+ nucleoli phenotype percent effect / %"],
 "data": [
  ["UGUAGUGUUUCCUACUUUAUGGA [hsa-miR-142-3p]", "MCF10A", -20],
  ["GCAGAGUGCAAACAAUUUUGAC [hsa-miR-759]", "MCF10A", 51.1],
  ["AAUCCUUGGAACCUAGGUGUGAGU [hsa-miR-362-5p]", "MCF10A", -6.28],
  ["CCCUCUCUGUCCCACCCAUAG [hsa-miR-6769b-3p]", "MCF10A", 91.5],
  ["UGUGGGUUCUGGGUUGGGGUGA [hsa-miR-6793-5p]", "MCF10A", -24.1],
  ["GUCCUAGGAGGCUCCUCUG [hsa-miR-5571-3p]", "MCF10A", -30],
  ["CGCUUUGCUCAGCCAGUGUAG [hsa-miR-1251-3p]", "MCF10A", -13.1],
  ["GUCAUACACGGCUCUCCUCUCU [hsa-miR-485-3p]", "MCF10A", -1.94]
]}

Reported 5+ nucleoli phenotype percent effect (MCF10A) for entry UGGGGUGCCCACUCCGCAAGUU [hsa-miR-4664-5p] is -17.8

Reported 5+ nucleoli phenotype percent effect (MCF10A) for entry CAAAGGUAUUUGUGGUUUUUG [hsa-miR-548m] is -40.8

Reported 5+ nucleoli phenotype percent effect (MCF10A) for entry CCAGGCUCUGCAGUGGGAACU [hsa-miR-3155a] is 30.4
